Assay: Phase 1 single-dose pharmacokinetics (PN001, PN002/Part I, PN003, PN005)
Type: in vivo, human
Conditions: male, human, plasma, oral, 8 mg, single 8 mg CX-8998; PN002/Part I middle-aged and elderly males; read-out: Cmax
Observation Type: Cmax (nM)
Express the result in nM but write the number alone.

Just so you know, measured Cmax for `CC(C)c1ccc(CC(=O)N[C@H](C)c2ccc(OCC(F)(F)F)cn2)cc1` came out at 708

---

# key: entry, value: concentration at 4 h
Assay: T-CALM: plasma concentrations by 5-in-1 LC/MS/MS
Type: in vivo, human
Conditions: human, plasma, oral; Visit 4 (Day 28), 10 mg BID, 4 hours post-dose
Express the result in nM but write the number alone.

Known results for molecules:
C[C@@H](NC(=O)Cc1ccc(C(C)(C)O)cc1)c1ccc(OCC(F)(F)F)cn1 : 438
CC(CO)c1ccc(CC(=O)N[C@H](C)c2ccc(OCC(F)(F)F)cn2)cc1 (stereo partly shown) : 6.4
CC(C(=O)O)c1ccc(CC(=O)N[C@H](C)c2ccc(OCC(F)(F)F)cn2)cc1 (stereo partly shown) : 22

In the following, a different molecule is considered.
Just so you know, measured concentration at 4 h for `C=C(C)c1ccc(CC(=O)N[C@H](C)c2ccc(OCC(F)(F)F)cn2)cc1` came out at 976
